# System: human lung fibroblast MRC-5 cells
# Run Description: Cellular toxicity (MTT assay) in MRC-5 cells
# Format: cell-based
# Experimental Setup: Homo sapiens, MRC5; MTT assay; 72 h at 37 °C
Property Label: EC50 (µM)
Give the quantity in µM, number only.

// solved cases for EC50 follow
| Compound | Reading Unit | EC50 |
| --- | --- | --- |
| C[C@@H]1[C@H](O)[C@@H](C)/C=C/C=C/C=C/C=C/C=C/C=C/C=C/[C@H](O[C@@H]2O[C@H](C)[C@@H](O)[C@H](N)[C@@H]2O)C[C@@H]2O[C@](O)(C[C@@H](O)C[C@@H](O)[C@H](O)CC[C@@H](O)C[C@@H](O)CC(=O)O[C@H]1C)C[C@H](O)[C@H]2C(=O)O [AmB, amphotericin B, reference compound] | µM | 16.9 |
| CCCCCCCCCCCCSCCC[C@@H]1[C@H](O)[C@@H](O)[C@H](O)[C@H]2COC(=O)N12 | µM | 19.9 |
| CCCCCCCCS(=O)(=O)CCC[C@@H]1[C@H](O)[C@@H](O)[C@H](O)[C@H]2COC(=O)N12 | µM | 189 |
| CC(C)(C)OC(=O)NCCS(=O)(=O)CCC[C@@H]1[C@H](O)[C@@H](O)[C@H](O)[C@H]2COC(=O)N12 | µM | 155 |

[in] May I ask what EC50 has been recorded for CCCCCCCCCCCCSCCC[C@@H]1[C@H](O)[C@@H](O)[C@@H](O)[C@H]2COC(=O)N12 ?
[out] 32.1

[in] Entry CCCCCCCCSCCC[C@@H]1[C@H](O)[C@@H](O)[C@H](O)[C@H]2COC(=O)N12 please
[out] 32.2

[in] Entry CCCCCCCCCCCCS(=O)(=O)CCC[C@@H]1[C@H](O)[C@@H](O)[C@H](O)[C@H]2COC(=O)N12 please
[out] 71.5

Attribution: paper PMC6720825
